Target: ATP-binding cassette transporter A1 (ABCA1) (mouse, UniProt P41233 1-2261)
Sequence (P41233 whole entry): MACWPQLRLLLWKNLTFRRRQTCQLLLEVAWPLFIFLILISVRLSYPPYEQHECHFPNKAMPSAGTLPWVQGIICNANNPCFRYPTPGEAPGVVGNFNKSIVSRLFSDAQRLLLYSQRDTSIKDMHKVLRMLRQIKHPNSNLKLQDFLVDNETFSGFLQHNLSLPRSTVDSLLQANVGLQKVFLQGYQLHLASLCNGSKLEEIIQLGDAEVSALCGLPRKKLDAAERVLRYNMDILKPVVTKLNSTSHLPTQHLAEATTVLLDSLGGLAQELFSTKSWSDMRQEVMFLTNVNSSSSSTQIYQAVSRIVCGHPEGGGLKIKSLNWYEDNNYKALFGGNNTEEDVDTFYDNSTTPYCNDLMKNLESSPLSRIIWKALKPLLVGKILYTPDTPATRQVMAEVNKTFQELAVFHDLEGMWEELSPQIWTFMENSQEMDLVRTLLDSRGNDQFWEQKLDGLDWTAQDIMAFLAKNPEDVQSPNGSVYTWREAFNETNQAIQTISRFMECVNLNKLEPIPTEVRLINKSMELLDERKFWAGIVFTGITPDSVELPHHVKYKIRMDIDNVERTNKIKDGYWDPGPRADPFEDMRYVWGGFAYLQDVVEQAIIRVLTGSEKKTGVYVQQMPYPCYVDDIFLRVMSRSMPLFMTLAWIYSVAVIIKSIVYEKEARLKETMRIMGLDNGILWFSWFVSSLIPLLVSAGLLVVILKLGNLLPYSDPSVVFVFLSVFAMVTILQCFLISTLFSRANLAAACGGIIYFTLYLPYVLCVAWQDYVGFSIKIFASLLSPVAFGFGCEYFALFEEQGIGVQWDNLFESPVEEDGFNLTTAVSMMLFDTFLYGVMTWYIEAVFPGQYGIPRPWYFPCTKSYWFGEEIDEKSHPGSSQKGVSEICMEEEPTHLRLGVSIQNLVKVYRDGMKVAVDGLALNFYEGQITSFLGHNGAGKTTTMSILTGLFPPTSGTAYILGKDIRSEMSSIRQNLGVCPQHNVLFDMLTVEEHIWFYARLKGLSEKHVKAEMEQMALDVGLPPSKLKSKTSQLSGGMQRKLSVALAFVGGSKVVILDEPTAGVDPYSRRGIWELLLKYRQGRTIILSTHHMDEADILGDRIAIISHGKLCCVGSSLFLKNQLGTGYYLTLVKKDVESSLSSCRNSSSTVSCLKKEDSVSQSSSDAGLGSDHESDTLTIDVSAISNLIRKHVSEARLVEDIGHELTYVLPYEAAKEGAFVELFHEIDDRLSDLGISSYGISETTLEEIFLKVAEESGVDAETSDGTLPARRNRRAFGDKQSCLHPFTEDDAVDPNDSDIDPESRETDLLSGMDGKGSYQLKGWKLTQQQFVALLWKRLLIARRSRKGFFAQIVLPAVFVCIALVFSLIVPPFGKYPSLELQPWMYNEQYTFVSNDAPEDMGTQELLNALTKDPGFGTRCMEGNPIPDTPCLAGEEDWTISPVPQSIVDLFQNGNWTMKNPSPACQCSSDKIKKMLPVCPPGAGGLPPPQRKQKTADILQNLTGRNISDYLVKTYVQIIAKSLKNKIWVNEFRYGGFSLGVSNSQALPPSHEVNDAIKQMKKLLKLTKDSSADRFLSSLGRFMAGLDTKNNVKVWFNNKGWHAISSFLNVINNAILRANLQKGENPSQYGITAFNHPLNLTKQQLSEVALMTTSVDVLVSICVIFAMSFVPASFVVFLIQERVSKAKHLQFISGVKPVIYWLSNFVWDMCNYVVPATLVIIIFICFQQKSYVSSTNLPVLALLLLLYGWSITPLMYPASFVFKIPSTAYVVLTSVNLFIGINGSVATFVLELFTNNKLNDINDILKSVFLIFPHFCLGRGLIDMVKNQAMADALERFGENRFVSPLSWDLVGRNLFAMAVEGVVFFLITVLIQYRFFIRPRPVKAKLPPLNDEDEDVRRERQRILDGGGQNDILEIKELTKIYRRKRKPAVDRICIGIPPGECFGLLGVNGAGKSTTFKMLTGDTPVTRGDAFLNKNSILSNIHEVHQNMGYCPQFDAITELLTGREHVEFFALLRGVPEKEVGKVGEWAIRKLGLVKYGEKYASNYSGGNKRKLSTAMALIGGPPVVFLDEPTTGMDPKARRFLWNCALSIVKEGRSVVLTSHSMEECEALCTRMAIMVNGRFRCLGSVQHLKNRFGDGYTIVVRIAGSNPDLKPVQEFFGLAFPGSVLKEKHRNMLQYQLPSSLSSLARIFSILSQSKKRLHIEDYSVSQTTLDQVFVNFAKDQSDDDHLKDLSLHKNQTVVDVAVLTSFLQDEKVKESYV
Experiment: cell-based or functional assay
Bridges are numbered along the chain shown (N, C = ends). Where no end group is shown, it is not given here. [ ]: non-standard residue; d: D form. Ala(5-hexenyl) = C=CCCCCC[C@H](N)C(=O)O; Gla = N[C@@H](CC(C(=O)O)C(=O)O)C(=O)O; Aib = CC(C)(N)C(=O)O
Listing: ABCA1-dependent cholesterol efflux EC50 of selected binders
Respond numerically; units are µM and should not be typed.

Examples with their reported ABCA1-dependent cholesterol efflux EC50 follow.
Which ABCA1-dependent cholesterol efflux EC50 value belongs to Ac-PVLDEFREKLNE[Ala(5-hexenyl)]LEALKQKLKPVLDEFREKLNE[Ala(5-hexenyl)]LEALKQKLK [CONS[S7H^13]2] ?
41

Which ABCA1-dependent cholesterol efflux EC50 value belongs to Ac-PVLDE[Ala(5-hexenyl)]REKLNE[Ala(5-hexenyl)]LEALKQKLKGCPVLDE[Ala(5-hexenyl)]REKLNE[Ala(5-hexenyl)]LEALKQKLKGC (disulfide 24-48; also: homodimer of two 24-residue chains listed as one 48-residue chain, second N-terminal acetyl not placed) [(CONS[S7H^6,13]-GC)2] ?
1.5

Which ABCA1-dependent cholesterol efflux EC50 value belongs to Ac-PVLDEFREKLNE[Aib]L[Gla]ALKQKLK (not fully specified (C-terminus)) [GLA15/AIB13] ?
41

***
Which ABCA1-dependent cholesterol efflux EC50 value belongs to PVLDEXREKLNEXLXALKQXLK (not fully specified; N-terminal acetyl (Ac-Pro); S7H at 6, 13 and 20; Gla at 15) [CONS[GLA^15, S7H^6,13,20]] ?
0.5
